- Target Under Test: CDK9/cyclin T1 (Homo sapiens)
- Sequence (O60563 whole entry, the tested form may be a part): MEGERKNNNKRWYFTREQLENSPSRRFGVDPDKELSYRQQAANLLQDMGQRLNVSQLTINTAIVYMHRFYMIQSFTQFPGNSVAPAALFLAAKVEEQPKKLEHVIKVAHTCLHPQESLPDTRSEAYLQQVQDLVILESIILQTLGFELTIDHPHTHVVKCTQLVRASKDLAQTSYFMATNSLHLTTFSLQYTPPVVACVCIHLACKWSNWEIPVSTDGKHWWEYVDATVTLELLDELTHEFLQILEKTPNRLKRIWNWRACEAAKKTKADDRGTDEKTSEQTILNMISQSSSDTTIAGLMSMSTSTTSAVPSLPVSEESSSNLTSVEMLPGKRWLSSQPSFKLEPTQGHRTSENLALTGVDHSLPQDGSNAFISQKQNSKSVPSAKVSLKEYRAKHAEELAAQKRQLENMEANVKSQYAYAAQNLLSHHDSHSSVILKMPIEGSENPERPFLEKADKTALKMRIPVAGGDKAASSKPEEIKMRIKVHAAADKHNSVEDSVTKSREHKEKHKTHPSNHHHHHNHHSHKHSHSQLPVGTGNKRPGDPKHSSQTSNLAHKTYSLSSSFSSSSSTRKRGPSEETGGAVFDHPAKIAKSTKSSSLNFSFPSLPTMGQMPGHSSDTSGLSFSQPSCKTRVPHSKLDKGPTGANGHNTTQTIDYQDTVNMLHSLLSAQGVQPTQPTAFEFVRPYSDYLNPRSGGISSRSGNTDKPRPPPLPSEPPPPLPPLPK
- Sequence (P50750 whole entry, the tested form may be a part): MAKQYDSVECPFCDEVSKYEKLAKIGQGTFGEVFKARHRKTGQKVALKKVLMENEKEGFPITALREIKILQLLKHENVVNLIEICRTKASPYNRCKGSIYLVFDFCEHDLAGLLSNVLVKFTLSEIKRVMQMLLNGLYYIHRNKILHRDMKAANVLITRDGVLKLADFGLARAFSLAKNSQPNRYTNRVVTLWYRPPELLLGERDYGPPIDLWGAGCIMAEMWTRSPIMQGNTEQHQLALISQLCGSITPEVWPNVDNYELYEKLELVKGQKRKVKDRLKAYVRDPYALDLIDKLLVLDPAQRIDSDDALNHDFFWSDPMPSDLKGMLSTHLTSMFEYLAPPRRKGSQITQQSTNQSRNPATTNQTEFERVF
- Assay Protocol: Inhibition of human full-length N-terminal GST/His6-tagged CDK9 (1 to 372 residues)/His6-tagged Cyclin-T1 (1 to 726 residues) expressed in sf9 cells using (YSPTSPS)2KK peptide as substrate in presence of [gamma33P]ATP
Observation Type: IC50

Here's what some known entries look like.
| Molecule Smiles | Observed Value |
| --- | --- |
| Nc1nn2cc(-c3ccccc3)[nH]c2c1/N=N/c1ccc(S(N)(=O)=O)cc1 | > 25 µM |
| N#Cc1c(-c2ccc(Cl)cc2)nc2c(/N=N/c3ccc(S(N)(=O)=O)cc3)c(N)nn2c1N | > 12.5 µM |

Hi! Can you tell me IC50 for each of these compounds?
1. Nc1nn2c(-c3ccc(F)cc3)ccnc2c1/N=N/c1ccc(S(N)(=O)=O)cc1
2. Nc1nn2cc(-c3ccc(F)cc3)[nH]c2c1/N=N/c1ccc(S(N)(=O)=O)cc1
3. Nc1nn2c(-c3ccccc3)ccnc2c1/N=N/c1ccc(S(N)(=O)=O)cc1

(A)
1. > 12.5 µM
2. > 12.5 µM
3. > 12.5 µM
